# targetEntity: mouse HER2 (23-653) (Mus musculus)
# assaySummary: TR-FRET competition assay for peptide potency, mouse HER2
# Type: binding
# Parameters: mouse HER2 (23-653) using a Cy5 labeled peptide as a probe; made in house; host or cells: mammalian cells
# assayContext: TR-FRET competition with Cy5 labeled peptide probe, 0.1 nM mouse HER2, 24 h incubation; read-out: moHER2 TR-FRET IC50
Structures can show the parent of a compound that is named as a salt. Positions of bridges follow the written chain, without caps; N, C: chain ends. Non-standard residues stand in square brackets, D forms with d. Residues, ends and D or L forms follow the SMILES beside them. *: point of attachment. Trp(5-OH) = N[C@@H](Cc1c[nH]c2ccc(O)cc12)C(=O)O; NMePhe(4-F) = CN[C@@H](Cc1ccc(F)cc1)C(=O)O; NMehPhe = CN[C@@H](CCc1ccccc1)C(=O)O; Aad = N[C@@H](CCCC(=O)O)C(=O)O; Gly(cPr) = N[C@H](C(=O)O)C1CC1; NMeK = CN[C@@H](CCCCN)C(=O)O; NMeDap = CN[C@@H](CN)C(=O)O; NMeC = CN[C@@H](CS)C(=O)O; NMeS = CN[C@@H](CO)C(=O)O; hCys = N[C@@H](CCS)C(=O)O; Tfa = O=C(C(F)(F)F)*
Recorded IC50 values for a group of compounds are listed next.

compound	unitOfMeasure	operatorSymbol	IC50
CC(=O)N[C@H]1CCCC(=O)NC[C@@H](C(=O)N(C)[C@@H](Cc2ccc(F)cc2)C(N)=O)N(C)C(=O)[C@H](C2CC2)NC(=O)[C@H](Cc2c[nH]c3ccccc23)NC(=O)[C@H](Cc2c[nH]c3ccc(O)cc23)NC(=O)[C@H](CCCCNC(=O)C(F)(F)F)N(C)C(=O)[C@H](CCc2ccccc2)N(C)C(=O)[C@H](CO)NC(=O)[C@H](Cc2ccc(O)cc2)NC1=O [Example A4] (Ac-[Aad]YS[NMehPhe][NMeK](Tfa)[Trp(5-OH)]W[Gly(cPr)][NMeDap][NMePhe(4-F)]-NH2; lactam 1-9)	nM	=	29
CC(=O)NCCCC[C@H]1C(=O)N[C@@H](Cc2c[nH]c3ccc(O)cc23)C(=O)N[C@@H](Cc2c[nH]c3ccccc23)C(=O)N[C@@H](C2CC2)C(=O)N(C)[C@H](C(=O)N(C)[C@@H](Cc2ccc(F)cc2)C(=O)N[C@@H](CCCCNC(=O)CC[C@H](C(=O)O)N2CCN(CC(=O)O)CCN(CC(=O)O)CCN(CC(=O)O)CC2)C(N)=O)CNC(=O)CCC[C@H](NC(C)=O)C(=O)N[C@@H](Cc2ccc(O)cc2)C(=O)N[C@@H](CO)C(=O)N(C)[C@@H](CCc2ccccc2)C(=O)N1C [Example B12]	nM	<	0.1
CN1C(=O)[C@H](CO)NC(=O)[C@H](Cc2ccc(O)cc2)NC(=O)[C@@H](N)CCSSC[C@@H](C(=O)N(C)[C@@H](Cc2ccc(F)cc2)C(N)=O)N(C)C(=O)[C@H](C2CC2)NC(=O)[C@H](Cc2c[nH]c3ccccc23)NC(=O)[C@H](Cc2c[nH]c3ccc(O)cc23)NC(=O)[C@H](CO)N(C)C(=O)[C@@H]1CCc1ccccc1 [Example A57, TFA salt] (H-[hCys]YS[NMehPhe][NMeS][Trp(5-OH)]W[Gly(cPr)][NMeC][NMePhe(4-F)]-NH2; disulfide 1-9)	nM	>	1000
CC(=O)NCCCC[C@H]1C(=O)N[C@@H](Cc2c[nH]c3ccc(O)cc23)C(=O)N[C@@H](Cc2c[nH]c3ccccc23)C(=O)N[C@@H](C2CC2)C(=O)N(C)[C@H](C(=O)N(C)[C@@H](Cc2ccc(F)cc2)C(=O)N[C@@H](CCCCNC(=O)CN2CCN(CC(=O)O)CCN(CC(=O)O)CCN(CC(=O)O)CC2)C(N)=O)CNC(=O)CCC[C@H](NC(=O)CO)C(=O)N[C@@H](Cc2ccc(O)cc2)C(=O)N[C@@H](CO)C(=O)N(C)[C@@H](CCc2ccccc2)C(=O)N1C [Example C15]	nM	=	0.2
CC(=O)NCCCC[C@H]1C(=O)N[C@@H](Cc2c[nH]c3ccc(O)cc23)C(=O)N[C@@H](Cc2c[nH]c3ccccc23)C(=O)N[C@@H](C2CC2)C(=O)N(C)[C@H](C(=O)N(C)[C@@H](Cc2ccc(F)cc2)C(=O)N[C@@H](CCCCNC(=O)CN2CCN(CC(=O)O)CCN(CC(=O)O)CCN(CC(=O)O)CC2)C(N)=O)CNC(=O)CCC[C@H](NC(C)=O)C(=O)N[C@@H](Cc2ccc(O)cc2)C(=O)N[C@@H](CO)C(=O)N(C)[C@@H](CCc2ccccc2)C(=O)N1C [Example C29]	nM	=	0.2

* * *

# targetEntity: mouse HER2 (23-653) (Mus musculus)
# assaySummary: TR-FRET competition assay for peptide potency, mouse HER2
# Assay type: binding
# Set-up: mouse HER2 (23-653) using a Cy5 labeled peptide as a probe; made in house; host or cells: mammalian cells
# assayContext: TR-FRET competition with Cy5 labeled peptide probe, 0.1 nM mouse HER2, 24 h incubation; read-out: moHER2 TR-FRET IC50
pIC50: −log10 of the molar value. Positions of bridges follow the written chain, without caps; N, C: chain ends. Non-standard residues stand in square brackets, D forms with d. Residues, ends and D or L forms follow the SMILES beside them. NMePhe(4-F) = CN[C@@H](Cc1ccc(F)cc1)C(=O)O; NMehPhe = CN[C@@H](CCc1ccccc1)C(=O)O; Aad = N[C@@H](CCCC(=O)O)C(=O)O; Gly(cPr) = N[C@H](C(=O)O)C1CC1; Ahp(2) = CCCCC[C@H](N)C(=O)O; NMeK = CN[C@@H](CCCCN)C(=O)O; NMeDap = CN[C@@H](CN)C(=O)O

compound	operatorSymbol	pIC50
CCCCC[C@@H]1NC(=O)[C@H](CCCCNC(C)=O)N(C)C(=O)[C@H](CCc2ccccc2)N(C)C(=O)[C@H](CO)NC(=O)[C@H](Cc2ccc(O)cc2)NC(=O)[C@@H](NC(C)=O)CCCC(=O)NC[C@@H](C(=O)N(C)[C@@H](Cc2ccc(F)cc2)C(N)=O)N(C)C(=O)[C@H](C2CC2)NC(=O)[C@H](Cc2c[nH]c3ccccc23)NC1=O [Example A11] (Ac-[Aad]YS[NMehPhe][NMeK](Ac)[Ahp(2)]W[Gly(cPr)][NMeDap][NMePhe(4-F)]-NH2; lactam 1-9)	<	6.00
CC(=O)NCCCC[C@H]1C(=O)N[C@@H](Cc2c[nH]c3ccc(O)cc23)C(=O)N[C@@H](Cc2c[nH]c3ccccc23)C(=O)N[C@@H](C2CC2)C(=O)N(C)[C@H](C(=O)N(C)[C@@H](Cc2ccc(F)cc2)C(=O)N[C@@H](CCCCNC(=O)CN2CCN(CC(=O)O)CCN(CC(=O)O)CCN(CC(=O)O)CC2)C(N)=O)CNC(=O)CCC[C@H](NC(C)=O)C(=O)N[C@H](Cc2ccc(O)cc2)C(=O)N[C@H](CO)C(=O)N(C)[C@@H](CCc2ccccc2)C(=O)N1C [Example C36]	=	6.40

* * *

# targetEntity: human HER2 (23-652) (Homo sapiens)
# assaySummary: TR-FRET competition assay for peptide potency, human HER2
# Assay type: binding
# Set-up: towards human HER2 (23-652) and mouse HER2 (23-653); made in house; host or cells: mammalian cells
# assayContext: read-out: huHER2 TR-FRET IC50
Structures can show the parent of a compound that is named as a salt. Positions of bridges follow the written chain, without caps; N, C: chain ends. Non-standard residues stand in square brackets, D forms with d. Residues, ends and D or L forms follow the SMILES beside them. Trp(5-OH) = N[C@@H](Cc1c[nH]c2ccc(O)cc12)C(=O)O; NMePhe(4-F) = CN[C@@H](Cc1ccc(F)cc1)C(=O)O; NMehPhe = CN[C@@H](CCc1ccccc1)C(=O)O; Aad = N[C@@H](CCCC(=O)O)C(=O)O; Gly(cPr) = N[C@H](C(=O)O)C1CC1; aThr = C[C@H](O)[C@H](N)C(=O)O; NMehCys = CN[C@@H](CCS)C(=O)O; NMeK = CN[C@@H](CCCCN)C(=O)O; NMeDap = CN[C@@H](CN)C(=O)O; NMeS = CN[C@@H](CO)C(=O)O; hCys = N[C@@H](CCS)C(=O)O
Here, each record is paired with measured IC50 data.
readoutLabel: IC50 (nM)

compound	readoutLabel	unitOfMeasure	operatorSymbol	value
CC(=O)N[C@H]1CC(=O)NC[C@@H](C(=O)N(C)[C@@H](Cc2ccc(F)cc2)C(N)=O)N(C)C(=O)[C@H](C2CC2)NC(=O)[C@H](Cc2c[nH]c3ccccc23)NC(=O)[C@H](Cc2c[nH]c3ccc(O)cc23)NC(=O)[C@H](CO)N(C)C(=O)[C@H](CCc2ccccc2)N(C)C(=O)[C@H](CO)NC(=O)[C@H](Cc2ccc(O)cc2)NC1=O [Example A28] (Ac-DYS[NMehPhe][NMeS][Trp(5-OH)]W[Gly(cPr)][NMeDap][NMePhe(4-F)]-NH2; lactam 1-9)	IC50	nM	=	223
CC(=O)NCCCC[C@H]1C(=O)N[C@@H](Cc2c[nH]c3ccc(O)cc23)C(=O)N[C@@H](Cc2c[nH]c3ccccc23)C(=O)N[C@@H](C2CC2)C(=O)N(C)[C@H](C(=O)N(C)[C@@H](Cc2ccc(F)cc2)C(N)=O)CCSSCC[C@H](N)C(=O)N[C@@H](Cc2ccc(O)cc2)C(=O)N[C@@H](CO)C(=O)N(C)[C@@H](CCc2ccccc2)C(=O)N1C [Example A55, TFA salt] (H-[hCys]YS[NMehPhe][NMeK](Ac)[Trp(5-OH)]W[Gly(cPr)][NMehCys][NMePhe(4-F)]-NH2; disulfide 1-9)	IC50	nM	=	97
CC(=O)N[C@H]1CCC(=O)NC[C@@H](C(=O)N(C)[C@@H](Cc2ccc(F)cc2)C(N)=O)N(C)C(=O)[C@H](C2CC2)NC(=O)[C@H](Cc2c[nH]c3ccccc23)NC(=O)[C@H](Cc2c[nH]c3ccc(O)cc23)NC(=O)[C@H](CO)N(C)C(=O)[C@H](CCc2ccccc2)N(C)C(=O)[C@H](CO)NC(=O)[C@H](Cc2ccc(O)cc2)NC1=O	IC50	nM	=	82
CC(=O)NCCCC[C@H]1C(=O)N[C@@H](Cc2c[nH]c3ccc(O)cc23)C(=O)N[C@@H](Cc2c[nH]c3ccccc23)C(=O)N[C@@H]([C@H](C)O)C(=O)N(C)[C@H](C(=O)N(C)[C@@H](Cc2ccc(F)cc2)C(N)=O)CNC(=O)CCC[C@H](NC(C)=O)C(=O)N[C@@H](Cc2ccc(O)cc2)C(=O)N[C@@H](CO)C(=O)N(C)[C@@H](CCc2ccccc2)C(=O)N1C [Example A6] (Ac-[Aad]YS[NMehPhe][NMeK](Ac)[Trp(5-OH)]W[aThr][NMeDap][NMePhe(4-F)]-NH2; lactam 1-9)	IC50	nM	=	1.3
COCCOCCOCCOCCOCCOCCOCCOCCOCCOCCOCCOCCC(=O)N[C@H]1CCCC(=O)NC[C@@H](C(=O)N(C)[C@@H](Cc2ccc(F)cc2)C(=O)N[C@@H](CCCCNC(=O)CN2CCN(CC(=O)O)CCN(CC(=O)O)CCN(CC(=O)O)CC2)C(N)=O)N(C)C(=O)[C@H](C2CC2)NC(=O)[C@H](Cc2c[nH]c3ccccc23)NC(=O)[C@H](Cc2c[nH]c3ccc(O)cc23)NC(=O)[C@H](CCCCNC(C)=O)N(C)C(=O)[C@H](CCc2ccccc2)N(C)C(=O)[C@H](CO)NC(=O)[C@H](Cc2ccc(O)cc2)NC1=O	IC50	nM	<	0.1
CC(=O)N[C@H]1CCC(=O)NC[C@@H](C(=O)N(C)[C@@H](Cc2ccc(F)cc2)C(N)=O)NC(=O)[C@H](C2CC2)NC(=O)[C@H](Cc2c[nH]c3ccccc23)NC(=O)[C@H](Cc2c[nH]c3ccc(O)cc23)NC(=O)[C@H](CO)N(C)C(=O)[C@H](CCc2ccccc2)N(C)C(=O)[C@H](CO)NC(=O)[C@H](Cc2ccc(O)cc2)NC1=O	IC50	nM	>	1000
CC(=O)NCCCC[C@H]1C(=O)N[C@@H](Cc2c[nH]c3ccc(O)cc23)C(=O)N[C@@H](Cc2c[nH]c3ccccc23)C(=O)N[C@@H](C2CC2)C(=O)N(C)[C@H](C(=O)N(C)[C@@H](Cc2ccc(F)cc2)C(=O)N[C@@H](CCCCNC(=O)c2ccc([N+](C)(C)C)nc2)C(N)=O)CNC(=O)CCC[C@H](NC(C)=O)C(=O)N[C@@H](Cc2ccc(O)cc2)C(=O)N[C@@H](CO)C(=O)N(C)[C@@H](CCc2ccccc2)C(=O)N1C	IC50	nM	<	0.1
CC(=O)N[C@H]1CCCC(=O)NC[C@@H](C(=O)N(C)[C@@H](Cc2ccc(F)cc2)C(=O)N[C@@H](CCCCNC(=O)CN2CCN(CC(=O)O)CCN(CC(=O)O)CCN(CC(=O)O)CC2)C(N)=O)N(C)C(=O)[C@H]([C@H](C)O)NC(=O)[C@H](Cc2c[nH]c3ccccc23)NC(=O)[C@H](Cc2c[nH]c3ccc(O)cc23)NC(=O)[C@H](CCCCNC(=O)CCO)N(C)C(=O)[C@H](CCc2ccccc2)N(C)C(=O)[C@H](CO)NC(=O)[C@H](Cc2ccc(O)cc2)NC1=O	IC50	nM	=	0.4
CC(=O)NCCCC[C@H]1C(=O)N[C@@H](Cc2c[nH]c3ccc(O)cc23)C(=O)N[C@@H](Cc2c[nH]c3ccccc23)C(=O)N[C@@H](C2CC2)C(=O)N(C)[C@H](C(=O)N(C)[C@@H](Cc2ccc(F)cc2)C(=O)N[C@@H](CCCCNC(=O)CN2CCN(CC(=O)O)CCN(CC(=O)O)CC2)C(N)=O)CNC(=O)CCC[C@H](NC(C)=O)C(=O)N[C@@H](Cc2ccc(O)cc2)C(=O)N[C@@H](CO)C(=O)N(C)[C@@H](CCc2ccccc2)C(=O)N1C	IC50	nM	<	0.1
